- experiment: Blood brain barrier penetration assay in CD-1 mice (short oral absorption model, Kpuu brain)
- Format: in vivo
- measurement_conditions: mouse, brain and plasma, male CD-1 mice, 1 h post-dose, Kpuu brain = conc (brain)/conc (plasma) x (fu brain/fu plasma)
measure: Kp uu at 1 h
When you answer, write just the number.

Please fill in: Kp uu at 1 h reported for "C=CC(=O)N1CCN(c2ncc3ncnc(Nc4ccc(Oc5cnc6c(c5)ncn6C)c(C)c4)c3n2)CC1" = 0.04

Please fill in: Kp uu at 1 h reported for "C=CC(=O)N1CCN(c2ncc3ncnc(Nc4ccc(Oc5ccc6c(c5)nnn6C)c(C)c4)c3n2)CC1" = 0.22

Please fill in: Kp uu at 1 h reported for "C=CC(=O)N1CCN(c2ncc3ncnc(Nc4ccc(Oc5cc(F)c6c(c5)ncn6C)c(C)c4)c3n2)CC1" = 0.12

Please fill in: Kp uu at 1 h reported for C=CC(=O)N1CCN(c2ncc3ncnc(Nc4ccc(Oc5ccc6c(c5)ncn6C)c(C)c4)c3n2)CC1 [Analog of compound 5, reference compound] = 0.04
